B1: library; a variant is named by its letters at N, in order (parent)
chain: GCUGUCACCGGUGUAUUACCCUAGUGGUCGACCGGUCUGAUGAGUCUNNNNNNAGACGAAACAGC

# Variants of: B1
# test-details: normalized RNA/DNA level without ligand (relative to sTRSVctl = 100) (log10 (% of sTRSVctl)); ligand: hypoxanthine (xanthine aptamer); higher = less ribozyme self-cleavage, higher mRNA level
# condition-label: HEK293T, reporter: mCherry (pCS4076), ligand present: no
Documented normalized RNA/DNA level without ligand (log10) across a set of variants
observed-property: normalized RNA/DNA level without ligand (log10)

mutation-code: AAUUAA
assay-value: 1.76

mutation-code: UUCAGG
assay-value: 1.79

mutation-code: UAUGUU
assay-value: 1.85

mutation-code: AACUGG
assay-value: 1.42

mutation-code: CUGGAA
assay-value: 1.77

mutation-code: CGUGAA
assay-value: 1.6

mutation-code: CAUGAC
assay-value: 1.79

mutation-code: GUGGAA
assay-value: 1.61

mutation-code: GGAGUA
assay-value: 1.77

mutation-code: CCGGUC
assay-value: 1.95

mutation-code: CAGCCU
assay-value: 1.91
